Reported values of ΔG for individual entries
target: human EphB4 ephrin-binding domain (Homo sapiens, UniProt P54760); assay: Isothermal titration calorimetry (ITC) binding to EphB4 (17-196); settings: 25° C., 50 mM Tris pH 7.8, 150 mM NaCl, 1 mM CaCl2
Sequence (P54760 17-196): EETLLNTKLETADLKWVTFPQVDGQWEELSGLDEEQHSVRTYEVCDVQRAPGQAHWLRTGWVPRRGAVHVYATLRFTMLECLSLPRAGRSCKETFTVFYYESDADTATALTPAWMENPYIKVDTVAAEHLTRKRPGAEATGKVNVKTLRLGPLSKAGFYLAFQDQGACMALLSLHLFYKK
Peptide text beside a SMILES is read from it.
resultType: ΔG (kcal/mol)

>>> recordedresult("CC[C@H](C)[C@H](NC(=O)[C@@H]1CCCN1C(=O)CNC(=O)[C@H](CC(N)=O)NC(=O)[C@@H]1CCCN1C(=O)[C@H](CO)NC(=O)[C@H](Cc1ccccc1)NC(=O)[C@H](CC(C)C)NC(=O)[C@H](Cc1ccc(O)cc1)NC(=O)[C@H](CC(N)=O)NC(=O)[C@@H](N)[C@@H](C)O)C(=O)N[C@@H](C)C(=O)N[C@@H](CCCNC(=N)N)C(=O)N[C@@H](C)C(=O)N[C@@H](Cc1c[nH]c2ccccc12)C(=O)O [TNYL-RAW] (H-TNYLFSPNGPIARAW-OH; N-terminus assumed)")
-9.8
>>> recordedresult("CC[C@H](C)[C@H](NC(=O)[C@@H]1CCCN1C(=O)CNC(=O)[C@H](CC(N)=O)NC(=O)[C@@H]1CCCN1C(=O)[C@H](CO)NC(=O)[C@H](Cc1ccccc1)NC(=O)[C@H](CC(C)C)NC(=O)[C@@H](N)Cc1ccc(O)cc1)C(=O)N[C@@H](C)C(=O)N[C@@H](CCCNC(=N)N)C(=O)N[C@@H](C)C(=O)N[C@@H](Cc1c[nH]c2ccccc12)C(=O)O [YLFS-RAW] (H-YLFSPNGPIARAW-OH; N-terminus and C-terminus assumed)")
-9.7
>>> recordedresult("CC[C@H](C)[C@H](NC(=O)[C@@H]1CCCN1C(=O)CNC(=O)[C@H](CC(N)=O)NC(=O)[C@@H]1CCCN1C(=O)[C@H](CO)NC(=O)[C@H](Cc1ccccc1)NC(=O)[C@H](CC(C)C)NC(=O)[C@H](Cc1ccc(O)cc1)NC(=O)[C@@H](N)CC(N)=O)C(=O)N[C@@H](C)C(=O)N[C@@H](CCCNC(=N)N)C(=O)N[C@@H](C)C(=O)N[C@@H](Cc1c[nH]c2ccccc12)C(=O)O [NYLF-RAW] (H-NYLFSPNGPIARAW-OH; N-terminus and C-terminus assumed)")
-9.8
>>> recordedresult("CC[C@H](C)[C@H](NC(=O)[C@@H]1CCCN1C(=O)CNC(=O)[C@H](CC(N)=O)NC(=O)[C@@H]1CCCN1C(=O)[C@H](CO)NC(=O)[C@H](Cc1ccccc1)NC(=O)[C@@H](N)CC(C)C)C(=O)N[C@@H](C)C(=O)N[C@@H](CCCNC(=N)N)C(=O)N[C@@H](C)C(=O)N[C@@H](Cc1c[nH]c2ccccc12)C(=O)O [LFSP-RAW] (H-LFSPNGPIARAW-OH; N-terminus and C-terminus assumed)")
-7.4
